test system: IGROV1; test: NCI primary anti-cancer assay (SRB), IGROV1; type: cell-based; conditions: Homo sapiens, IGROV-1; 10^−5M; Ovarian Cancer IGROV1; read-out: Growth Inhibition %
Classify by measured inhibition at 10 µM: Y if it is equal to or exceeds 40%, N if it is smaller.

- Cc1cc(C)nc(NS(=O)(=O)c2ccc(Nc3nc(C)c4c(=O)[nH]c(Nc5cccc(Cl)c5)nc4n3)cc2)n1: Y
- O=c1[nH]c(NCc2ccccc2)nc2nc(Nc3ccc(NC(=S)Nc4ccccc4)cc3)nc(-c3ccc(O)cc3O)c12: N
- Cc1cc(C)nc(NS(=O)(=O)c2ccc(Nc3nc(-c4ccc(O)cc4O)c4c(=O)[nH]c(SCc5ccccc5)nc4n3)cc2)n1: N
- Cc1cc(C)nc(NS(=O)(=O)c2ccc(Nc3nc(C)c4c(=O)[nH]c(NCc5ccccc5)nc4n3)cc2)n1: Y
- Cc1nc(Nc2ccc(NC(=S)Nc3ccccc3)cc2)nc2nc(Nc3ccc(S(=O)(=O)O)cc3)[nH]c(=O)c12: N
- Cc1nc(Nc2ccc(NC(=S)Nc3ccccc3)cc2)nc2nc(SCc3ccccc3)[nH]c(=O)c12: N
